Listed below: Phage binding ELISA, Anti-CD28 Fab signal values for each entry.
target: T1, Anti-CD28 Fab (SEQ ID NOs: 696, 697); assay: phage ELISA; biotinylated anti-CD28 Fab on neutravidin plate, clonal phage supernatant, anti-M13 HRP detection;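 further: crude supernatants of single phage clones picked after panning were screened for binding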
T1 construct: In the phage ELISA the Fab was biotinylated and captured on neutravidin coated plates
T1 sequence (VH, as listed by the source, chain 1 of 2): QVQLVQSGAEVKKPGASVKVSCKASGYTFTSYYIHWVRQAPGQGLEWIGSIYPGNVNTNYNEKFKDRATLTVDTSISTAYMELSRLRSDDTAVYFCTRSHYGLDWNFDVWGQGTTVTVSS
T1 sequence (VL, as listed by the source, chain 2 of 2): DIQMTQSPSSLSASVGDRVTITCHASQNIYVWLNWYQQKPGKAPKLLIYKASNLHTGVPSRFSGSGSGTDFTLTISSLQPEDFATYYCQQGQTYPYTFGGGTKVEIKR
Give a plain numeric answer without units written out.

Check out these entries, answers already filled in.
>  <BINDER>
YCEGHMSEYMRKCL [Phage-1288]

>  <ENDPOINT RESULT>
0.69

$$$$
>  <BINDER>
YCEGHLPQYLAKCY [Phage-1291]

>  <ENDPOINT RESULT>
0.67

$$$$

As a next step, examine the binder that follows.
Query string: Quick one: Phage binding ELISA, Anti-CD28 Fab signal of YCDGHAAWYLQKCL [Phage-1297] ?
Result string: 0.64
